B1: library; a variant is named by its letters at N, in order (parent)
chain: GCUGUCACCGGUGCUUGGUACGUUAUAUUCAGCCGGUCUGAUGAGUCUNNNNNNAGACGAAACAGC

Variants of: B1
Experiment: normalized RNA/DNA level with ligand (relative to sTRSVctl = 100) (log10 (% of sTRSVctl)); HEK293T overexpressing SLC46A1; ligand concentration (+) RNA-Seq: 6 mM; higher = less ribozyme self-cleavage, higher mRNA level
Conditions: with (6R,S)-folinic acid; ligand present: yes
MEASURED_ENDPOINT: normalized RNA/DNA level with ligand (log10)
Give a plain numeric answer without units written out.

// below: answered variants
MUTANT_DESIGNATION: CCCGGA
OBSERVED_RESULT: 2.03
--
MUTANT_DESIGNATION: CUUGUC
OBSERVED_RESULT: 2.06
--
MUTANT_DESIGNATION: AAAGAU
OBSERVED_RESULT: 2
--
MUTANT_DESIGNATION: AUACCU
OBSERVED_RESULT: 2.03

Moving on to the next variant.
Asked: Fill in: normalized RNA/DNA level with ligand (log10) of "AGGACU" is ___
Given back: 2.01
